# experiment.description: Cmax in human at 13.3 mg/kg, po administered as single dose under fed condition measured after 1 day
# Type: ADME, organism-based
# Parameters: dose 13.3 mg/kg, route oral
# setup.conditions: in vivo
readout.name: Cmax (ng/mL)
A number alone suffices; assume ng/mL.

Identify the reported Cmax for the following entry. O=C(NN1C(=O)[C@@H]2[C@@H]3C=C[C@@H]([C@H]4C[C@@H]34)[C@@H]2C1=O)c1ccc(C(F)(F)F)cc1 2280

---

# experiment.description: Cmax in human at 4.2 mg/kg, po qd for 6 days administered under fed condition measured after 6 days
# Assay type: ADME, organism-based
# Parameters: dose 4.2 mg/kg, route oral
# setup.conditions: in vivo
readout.name: Cmax (ng/mL)
Give a bare numeral; the unit ng/mL is implied.

Please give the documented Cmax of O=C(NN1C(=O)[C@@H]2[C@@H]3C=C[C@@H]([C@H]4C[C@@H]34)[C@@H]2C1=O)c1ccc(C(F)(F)F)cc1 [TECOVIRIMAT] 1210
